# Test system: Trypanosoma brucei
# experiment-summary: DNDI: Inhibition of Human African Trypanosomiasis, SBRI 427, in vitro at 2 ug.mL-1
# Format: functional
The whole screen tested about 4,400 compounds, of which about 390 (8.9%) showed an effect of 50% or more. The list comes from a sample in which strong results are over-represented; it also holds close analogues and randomly drawn compounds.
property-label: % inhibition (%)
Expressed in %, but write only the number.

IN: Using the record for CC(C)(C)CN/C(=N\O)c1cccnc1Oc1c(F)cccc1F , state its measured % inhibition.
OUT: 100

IN: Using the record for O/N=C(\NCc1ccccc1)c1cccnc1Oc1c(F)c(F)cc(F)c1F , state its measured % inhibition.
OUT: 10

IN: Using the record for CSc1ccc(Oc2nc(C)ccc2/C(=N/O)NCC(C)(C)C)cc1 , state its measured % inhibition.
OUT: -6

IN: Using the record for COc1ccc(CN/C(=N\O)c2cccnc2Oc2c(F)cccc2F)cc1 , state its measured % inhibition.
OUT: -7

IN: Using the record for COc1ccc(Oc2ncccc2/C(=N/O)NC2CCc3ccccc32)cc1 (centres undefined) , state its measured % inhibition.
OUT: 97

IN: Using the record for COc1cc(C)ccc1Oc1nc(C)ccc1/C(=N/O)NCC1CCCCC1 , state its measured % inhibition.
OUT: 0

IN: Using the record for O/N=C(\NCc1c(F)cccc1F)c1cccnc1Oc1ccc(F)cc1 , state its measured % inhibition.
OUT: 94

IN: Using the record for O/N=C(\NC1CCc2ccccc21)c1cccnc1Oc1ccc2ccccc2c1 (centres undefined) , state its measured % inhibition.
OUT: 97

IN: Using the record for O/N=C(\NCc1ccncc1)c1cccnc1Oc1ccc(F)cc1 , state its measured % inhibition.
OUT: 2

IN: Using the record for Cc1cc(C)cc(Oc2nc(C)ccc2/C(=N/O)Nc2ccc(C(C)C)cc2)c1 , state its measured % inhibition.
OUT: 0

IN: Using the record for COC[C@H]1CCCN1Cc1coc(-c2ccc(C)cc2)n1 , state its measured % inhibition.
OUT: -9

IN: Using the record for COc1ccccc1Oc1ncccc1/C(=N/O)NCc1c(F)cccc1F , state its measured % inhibition.
OUT: 28

IN: Using the record for CCOc1ccccc1-c1nc(CN(C)Cc2cccc3ccccc23)co1 , state its measured % inhibition.
OUT: 15

IN: Using the record for CCCCN(CCC#N)Cc1coc(-c2ccccc2C)n1 , state its measured % inhibition.
OUT: -4

IN: Using the record for C=CCN1CCN(/C(=N\O)c2cccnc2OCC(F)(F)F)CC1 , state its measured % inhibition.
OUT: 7

IN: Using the record for COc1ccc(Oc2nc(C)ccc2/C(=N/O)NCCN2CCCC2)cc1 , state its measured % inhibition.
OUT: -2

IN: Using the record for CSc1ccc(Oc2nc(C)ccc2/C(=N/O)NC2CCc3ccccc32)cc1C (centres undefined) , state its measured % inhibition.
OUT: 21

IN: Using the record for CCC(CC)N/C(=N\O)c1ccc(C)nc1Oc1cc(C)cc(C(C)C)c1 , state its measured % inhibition.
OUT: 15

IN: Using the record for c1ccc2c(-c3nc(CNCc4ccncc4)co3)cccc2c1 , state its measured % inhibition.
OUT: 6

IN: Using the record for Cc1ccc(/C(=N/O)N2CCCc3ccccc32)c(Oc2ccc(F)c(F)c2)n1 , state its measured % inhibition.
OUT: 21

IN: Using the record for COc1cccc(-c2nc(Cn3cnc(-c4ccccc4)c3)co2)c1 , state its measured % inhibition.
OUT: -15

IN: Using the record for O/N=C(\NC1CCc2ccccc21)c1cccnc1Oc1ccc(-n2cncn2)cc1 (centres undefined) , state its measured % inhibition.
OUT: 31

IN: Using the record for C1=CCN(Cc2coc(-c3ccco3)n2)CC1 , state its measured % inhibition.
OUT: 30

IN: Using the record for CCC(CC)N/C(=N\O)c1ccc(C)nc1Oc1ccc(SC)cc1 , state its measured % inhibition.
OUT: 99

IN: Using the record for Cc1ccc(/C(=N/O)N2CCCCCC2)c(Oc2cccc(C(C)C)c2)n1 , state its measured % inhibition.
OUT: 14

IN: Using the record for CC(C)CN(C)Cc1coc(-c2ccccc2Cl)n1 , state its measured % inhibition.
OUT: 1

IN: Using the record for COc1ccc(Oc2nc(C)ccc2/C(=N/O)NC2CCc3ccccc32)cc1 (centres undefined) , state its measured % inhibition.
OUT: 23

IN: Using the record for CCC(CC)N/C(=N\O)c1ccc(C)nc1Oc1ccc(C)cc1C , state its measured % inhibition.
OUT: 34

IN: Using the record for Cc1ccc(/C(=N/O)NCc2cccnc2)c(Oc2c(F)c(F)cc(F)c2F)n1 , state its measured % inhibition.
OUT: 35
